subject.of.test: UniProtKB O75608
Sequence (O75608 whole entry, looked up): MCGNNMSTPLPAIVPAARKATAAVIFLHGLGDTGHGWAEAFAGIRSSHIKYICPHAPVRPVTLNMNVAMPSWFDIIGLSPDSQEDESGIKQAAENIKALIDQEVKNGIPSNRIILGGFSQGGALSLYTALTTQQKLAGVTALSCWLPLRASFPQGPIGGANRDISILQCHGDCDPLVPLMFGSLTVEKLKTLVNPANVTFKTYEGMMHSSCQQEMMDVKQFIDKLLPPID
pIC50: −log10 of the molar value.
measured.metric: pIC50

> print(dat)
                                   compound  value
1  O=C(ON1C(=O)C2CN(C(=O)N3CCOCC3)CCN2C1=O)N1CCC(CCc2ccc(Cl)cc2)CC1 (stereo unspecified)   7.06

====

subject.of.test: Acyl-protein thioesterase 2 (Homo sapiens) (UniProt O95372)
Sequence (O95372 whole entry, looked up): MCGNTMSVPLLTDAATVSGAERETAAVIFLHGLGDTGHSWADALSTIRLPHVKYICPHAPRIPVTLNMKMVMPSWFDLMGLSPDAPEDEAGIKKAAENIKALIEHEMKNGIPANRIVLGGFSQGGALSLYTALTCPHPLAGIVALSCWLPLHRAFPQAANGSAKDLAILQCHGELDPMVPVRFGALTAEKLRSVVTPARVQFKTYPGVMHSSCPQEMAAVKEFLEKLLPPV
pIC50: −log10 of the molar value.
measured.metric: pIC50

> print(dat)
                                   compound  measured.metric  value
1  O=C(ON1C(=O)C2CN(C(=O)N3CCOCC3)CCN2C1=O)N1CCC(CCc2ccc(Cl)cc2)CC1 (stereo unspecified)            pIC50   6.84
